// data source = ChEMBL document CHEMBL1127052

# target entity: Cathepsin E (Homo sapiens, UniProt P14091)
# Sequence (P14091 whole entry): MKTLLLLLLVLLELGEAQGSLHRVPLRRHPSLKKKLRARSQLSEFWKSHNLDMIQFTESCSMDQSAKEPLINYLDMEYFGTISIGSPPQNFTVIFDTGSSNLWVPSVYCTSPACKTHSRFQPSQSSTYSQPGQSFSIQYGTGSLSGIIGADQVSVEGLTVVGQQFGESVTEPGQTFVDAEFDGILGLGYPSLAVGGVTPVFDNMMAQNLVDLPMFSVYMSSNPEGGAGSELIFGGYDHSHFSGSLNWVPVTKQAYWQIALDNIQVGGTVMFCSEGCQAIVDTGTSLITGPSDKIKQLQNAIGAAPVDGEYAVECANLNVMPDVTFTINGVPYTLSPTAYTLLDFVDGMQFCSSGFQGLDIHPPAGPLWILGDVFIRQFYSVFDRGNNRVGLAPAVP
pIC50: −log10 of the molar value.
value kind: pIC50

Short answer please: pIC50, Cathepsin E (Homo sapiens, UniProt P14091), entry `NC1CCN(C(=O)C[C@@H](Cc2ccccc2)C(=O)N[C@@H](Cc2c[nH]cn2)C(=O)N[C@@H](CC2CCCCC2)[C@@H](O)[C@@H](O)CCc2ccccn2)CC1`
< 4.00

* * *

# target entity: Renin (Homo sapiens, UniProt P00797)
# Sequence (P00797 whole entry): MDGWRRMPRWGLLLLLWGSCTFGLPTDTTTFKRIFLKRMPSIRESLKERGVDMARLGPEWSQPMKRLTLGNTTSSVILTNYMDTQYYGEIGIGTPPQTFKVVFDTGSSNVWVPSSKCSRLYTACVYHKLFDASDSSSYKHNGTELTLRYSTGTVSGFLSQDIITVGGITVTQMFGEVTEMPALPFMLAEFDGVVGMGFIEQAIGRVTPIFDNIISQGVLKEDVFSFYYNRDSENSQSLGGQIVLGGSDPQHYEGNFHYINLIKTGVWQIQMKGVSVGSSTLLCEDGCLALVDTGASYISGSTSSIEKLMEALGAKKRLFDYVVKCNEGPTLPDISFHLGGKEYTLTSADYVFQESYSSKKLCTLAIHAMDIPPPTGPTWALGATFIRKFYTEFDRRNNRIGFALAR
# test protocol: In vitro inhibition of renin in human plasma
# Type: cell-free
Lab note: compare IC50 with 0.4 nM, writing TRUE if less and FALSE if equal or more.

Example entries and their recorded answers appear below.
Hello, I'm reviewing records and need to know if IC50 of `COc1ccc(C[C@H](NC(=O)[C@H]2CC[C@@H](N)CC2)C(=O)N[C@@H](Cc2cnc[nH]2)C(=O)N[C@@H](CC2CCCCC2)[C@@H](O)[C@@H](O)CCc2ccccn2)cc1` is below 0.4 nM. Could you check?
FALSE

Hello, I'm reviewing records and need to know if IC50 of `NC1CCN(C(=O)C[C@@H](Cc2cccc3ccccc23)C(=O)N[C@@H](Cc2cnc[nH]2)C(=O)N[C@@H](CC2CCCCC2)[C@@H](O)[C@@H](O)CCc2ccccn2)CC1` is below 0.4 nM. Could you check?
FALSE

Hello, I'm reviewing records and need to know if IC50 of `CN(CCN(C)C(=O)N1CCOCC1)C(=O)O[C@@H](Cc1ccccc1)C(=O)N[C@@H](Cc1c[nH]cn1)C(=O)N[C@@H](CC1CCCCC1)[C@@H](O)[C@@H](O)CCc1ccccn1` is below 0.4 nM. Could you check?
TRUE

New cases:
Hello, I'm reviewing records and need to know if IC50 of `NC1CCN(C(=O)O[C@@H](Cc2ccccc2)C(=O)N[C@@H](Cc2cnc[nH]2)C(=O)N[C@@H](CC2CCCCC2)[C@@H](O)[C@@H](O)CCc2ccccn2)CC1` is below 0.4 nM. Could you check?
TRUE

* * *

# target entity: Renin (Homo sapiens, UniProt P00797)
# test protocol: In vitro inhibition of purified human kidney renin
IC50 by entry:
Write it as a number; the unit nM goes unstated.

Example compounds with recorded IC50:
Could you share which IC50 value was measured for `CC(C)(C)S(=O)(=O)C[C@@H](Cc1ccccc1)C(=O)N[C@@H](Cc1c[nH]cn1)C(=O)N[C@@H](CC1CCCCC1)[C@@H](O)[C@@H](O)CCc1ccccn1` ?
0.17

Could you share which IC50 value was measured for `COc1ccc(C[C@H](NC(=O)[C@H]2CC[C@@H](N)CC2)C(=O)N[C@@H](Cc2cnc[nH]2)C(=O)N[C@@H](CC2CCCCC2)[C@@H](O)[C@@H](O)CCc2ccccn2)cc1` ?
4.2

Next item in the queue.
Could you share which IC50 value was measured for `NC1CCN(C(=O)C[C@@H](Cc2cccc3ccccc23)C(=O)N[C@@H](Cc2cnc[nH]2)C(=O)N[C@@H](CC2CCCCC2)[C@@H](O)[C@@H](O)CCc2ccccn2)CC1` ?
0.13

* * *

# target entity: Renin (Homo sapiens, UniProt P00797)
# test protocol: In vitro inhibition of renin in human plasma
# Assay type: cell-free
pIC50 by entry:
Notebook: values listed as pIC50 are -log10 of the concentration (mol/L).

Example compounds with recorded pIC50:
Could you share which pIC50 value was measured for `CSC[C@H](NC(=O)[C@@H](CC(=O)N1CCC(N)CC1)Cc1ccccc1)C(=O)N[C@@H](CC1CCCCC1)[C@@H](O)[C@@H](O)CCc1ccccn1` ?
9.60

Could you share which pIC50 value was measured for `CCOC(=O)CCCCC(=O)N[C@@H](Cc1ccccc1)C(=O)N[C@@H](Cc1c[nH]cn1)C(=O)N[C@@H](CC1CCCCC1)[C@@H](O)[C@@H](O)CCc1ccccn1` ?
9.12

Could you share which pIC50 value was measured for `CC(C)(C)S(=O)(=O)C[C@@H](Cc1ccccc1)C(=O)N[C@@H](Cc1c[nH]cn1)C(=O)N[C@@H](CC1CCCCC1)[C@@H](O)[C@@H](O)CCc1ccccn1` ?
9.37

Could you share which pIC50 value was measured for `N[C@H]1CC[C@@H](S(=O)(=O)C[C@@H](Cc2ccccc2)C(=O)N[C@@H](Cc2cnc[nH]2)C(=O)N[C@@H](CC2CCCCC2)[C@@H](O)[C@@H](O)CCc2ccccn2)CC1` ?
9.51

Could you share which pIC50 value was measured for `O=C(N[C@@H](Cc1cnc[nH]1)C(=O)N[C@@H](CC1CCCCC1)[C@@H](O)[C@@H](O)CCc1ccccn1)[C@@H](CC(=O)N1CCOCC1)Cc1ccccc1` ?
8.96

New cases:
Could you share which pIC50 value was measured for `NC1CCN(S(=O)(=O)C[C@@H](Cc2ccccc2)C(=O)N[C@@H](Cc2cnc[nH]2)C(=O)N[C@@H](CC2CCCCC2)[C@@H](O)[C@@H](O)CCc2ccccn2)CC1` ?
9.27

Could you share which pIC50 value was measured for `N[C@H]1CC[C@@H](C(=O)N[C@@H](Cc2ccccc2)C(=O)N[C@@H](Cc2cnc[nH]2)C(=O)N[C@@H](CC2CCCCC2)[C@@H](O)[C@@H](O)CCc2ccccn2)CC1` ?
9.33

Could you share which pIC50 value was measured for `CCC[C@H](NC(=O)[C@@H](CC(=O)N1CCC(N)CC1)Cc1ccccc1)C(=O)N[C@@H](CC1CCCCC1)[C@@H](O)[C@@H](O)CCc1ccccn1` ?
8.89
